Tested on: Fer (mouse)
Test: phosphorylation enrichment, bacterial display (enrichment ratio); higher = better substrate or ligand; peptides without Tyr show the background;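 also: 11-residue human phosphosite peptides and single-mutation variants displayed on the E. coli surface, counted by deep sequencing, each peptide's frequency after selection divided by its frequency in the unselected input library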;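 also: frequency after pTyr selection over input frequency; kinase dosed for 20-30% of maximal phosphorylation in three min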
Binary classification by phosphorylation enrichment, with 0.5 as an inclusive lower bound for yes; all other cases are no.

> print(dat)
                     monomer.sequence  class.label
 1     DGNTRYSTFSE [TKTL1_Y318_D315N]           no
 2          KLQKYYRQNPD [EHHADH_Y683]           no
 3    TDRNLYSKNLV [CFAP58_Y501_S496T]          yes
 4           DYYDLYGGEKF [PTPN11_Y66]          yes
 5       ACLSLYGGFVE [MVD_Y164_R161L]          yes
 6         VFFFSYLLKNH [PTEN_Y180_YF]          yes
 7   QGFDTYFGFLL [ARSB_Y165_R160Q_YF]          yes
 8   CTTIHYNFRCN [TP53_Y234_M237R_YF]           no
 9      QTLTDYDIRFF [CSNK2A1_Y131_YF]          yes
10           SPDMLYQYLKQ [RPAP3_Y567]          yes
11       SDVDLYQVRIA [PSMD9_Y70_T74I]          yes
12           EFNINYNNELP [THG1L_Y228]           no
13  TFHNTYHSHMR [IL1RAPL1_Y615_Q618H]           no

----------
Target: Jak2 (UniProt O60674)
Sequence (O60674 whole entry, looked up): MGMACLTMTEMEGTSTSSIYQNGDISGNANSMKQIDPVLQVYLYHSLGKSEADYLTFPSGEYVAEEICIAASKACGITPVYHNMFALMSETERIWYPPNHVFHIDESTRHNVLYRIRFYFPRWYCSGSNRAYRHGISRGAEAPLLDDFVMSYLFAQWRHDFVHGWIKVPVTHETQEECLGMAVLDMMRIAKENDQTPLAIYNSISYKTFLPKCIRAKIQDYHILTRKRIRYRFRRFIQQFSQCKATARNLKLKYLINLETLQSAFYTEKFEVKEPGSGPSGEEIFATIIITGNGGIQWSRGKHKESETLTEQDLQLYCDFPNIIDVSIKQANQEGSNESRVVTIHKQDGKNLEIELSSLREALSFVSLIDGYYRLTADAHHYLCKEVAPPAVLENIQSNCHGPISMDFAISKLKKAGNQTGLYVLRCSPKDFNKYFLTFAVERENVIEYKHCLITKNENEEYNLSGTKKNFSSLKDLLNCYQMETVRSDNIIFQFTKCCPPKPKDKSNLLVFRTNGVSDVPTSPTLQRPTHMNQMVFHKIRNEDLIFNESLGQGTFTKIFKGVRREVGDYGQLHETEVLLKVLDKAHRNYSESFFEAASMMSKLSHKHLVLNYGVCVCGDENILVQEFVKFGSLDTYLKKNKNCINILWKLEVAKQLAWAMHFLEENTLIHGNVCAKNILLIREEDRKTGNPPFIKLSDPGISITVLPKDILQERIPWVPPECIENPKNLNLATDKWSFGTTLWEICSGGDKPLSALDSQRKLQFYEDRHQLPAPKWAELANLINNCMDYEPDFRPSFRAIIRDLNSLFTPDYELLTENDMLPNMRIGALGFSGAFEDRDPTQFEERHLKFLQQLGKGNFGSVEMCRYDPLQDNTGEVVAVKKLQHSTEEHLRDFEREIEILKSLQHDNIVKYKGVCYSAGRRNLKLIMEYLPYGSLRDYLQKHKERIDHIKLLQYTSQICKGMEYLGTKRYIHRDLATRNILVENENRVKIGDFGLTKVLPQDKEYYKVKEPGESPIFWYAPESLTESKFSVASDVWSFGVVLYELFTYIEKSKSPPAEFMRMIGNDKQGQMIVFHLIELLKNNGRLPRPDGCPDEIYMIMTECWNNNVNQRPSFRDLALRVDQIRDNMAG
Assay: phosphorylation enrichment, bacterial display (enrichment ratio); higher = better substrate or ligand; peptides without Tyr show the background
Label scheme for phosphorylation enrichment: I: < 0.7; II: ≥ 0.7 and < 1; III: ≥ 1

> print(dat)
                       monomer.sequence  class.label
 1    PSSNLYFRCLT [CNGA3_Y168_W171C_YF]          III
 2  IFLGAYDRFLP [SLC22A5_Y486_V481I_YF]           II
 3     VTPVMYTYDEY [COL10A1_Y623_G618V]           II
 4             IIRRLYLKWHP [SACS_Y4333]           II
 5      GNLQENLTRHV [TGFBR2_Y336_Y336N]            I
 6        VPTSKYRGGGG [HBA1_Y141_L137P]            I
 7     VNFGAYINDFN [GLB1_Y488_K493N_YF]           II
 8    HLDRSYSFSFS [PEAR1_Y890_R885H_YF]          III
 9            SSVKPYRVFCD [FGB_Y266_YF]            I
10              CHSDDYVHISL [TSC1_Y406]           II
11       ENELTYFCFKK [CD59_Y86_C89Y_YF]          III
12           ADPQEYIPLPA [JAKtide_2014]           II
13   WAFNLYDINKF [KCNIP3_Y174_D179Y_YF]           II
14               LADKPYTFEDY [FXN_Y118]          III
15                AVSEGYKDFRA [CDA_Y79]            I
16    SQQTFCRVSNM [ABCD1_Y181_Y181C_YF]            I
17    RGFRQYAFDGK [HLA-A_Y140_D140Y_YF]            I
18        GISDEYHMIRH [GCDH_Y398_V400M]            I
19        ATHRSYDSDNP [MMUT_Y146_G145S]            I
20          EDNPEYMRLRN [ADD2_Y31_D28N]          III
21     DFPGIYSGFDD [POLR1C_Y33_N32I_YF]          III
22            IQRSLYDRPAS [PDGFRA_Y762]            I
23              TSEASYYKSLN [NGEF_Y288]           II
24           PLYRKYWPNHI [GREB1L_Y1560]           II

----------
Target: Hck (UniProt P08631)
Sequence (P08631 whole entry, looked up): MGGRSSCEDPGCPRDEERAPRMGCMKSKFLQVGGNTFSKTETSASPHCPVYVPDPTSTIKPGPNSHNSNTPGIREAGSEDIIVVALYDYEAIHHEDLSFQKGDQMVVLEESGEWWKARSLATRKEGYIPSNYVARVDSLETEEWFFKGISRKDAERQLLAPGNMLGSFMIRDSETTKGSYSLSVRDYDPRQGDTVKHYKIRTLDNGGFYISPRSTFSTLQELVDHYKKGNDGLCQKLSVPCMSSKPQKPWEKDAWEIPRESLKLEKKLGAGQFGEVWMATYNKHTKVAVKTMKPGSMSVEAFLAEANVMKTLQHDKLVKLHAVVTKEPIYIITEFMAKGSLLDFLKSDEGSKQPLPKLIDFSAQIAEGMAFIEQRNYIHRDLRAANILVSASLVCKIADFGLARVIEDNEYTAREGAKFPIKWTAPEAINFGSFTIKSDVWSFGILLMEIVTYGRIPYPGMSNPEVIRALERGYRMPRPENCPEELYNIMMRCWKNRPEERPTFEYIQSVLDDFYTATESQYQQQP
Test: phosphorylation enrichment, bacterial display (enrichment ratio); higher = better substrate or ligand; peptides without Tyr show the background
recorded.metric: phosphorylation enrichment

> print(dat)
                   monomer.sequence  quantitative.readout
1   GNLQENLTRHV [TGFBR2_Y336_Y336N]                 0.374
2          KDLPNYNWNSF [KISS1_Y112]                 0.416
3       NHYKRYNLCAE [PTEN_Y68_I67R]                 0.542
4        FKIFLYTLNDN [FN1_Y1975_YF]                 0.494
5       ILGRYYETSSI [PAX2_Y73_G76S]                 0.524
6      ADEEEYEIIAA [FEStide_E_2014]                 0.654
7  QFQEKYKQMEQ [HCN4_Y531_V534M_YF]                  1.53

----------
// reported phosphorylation enrichment per item
Biological target: EPHB1 (UniProt P54762)
Sequence (P54762 whole entry, looked up): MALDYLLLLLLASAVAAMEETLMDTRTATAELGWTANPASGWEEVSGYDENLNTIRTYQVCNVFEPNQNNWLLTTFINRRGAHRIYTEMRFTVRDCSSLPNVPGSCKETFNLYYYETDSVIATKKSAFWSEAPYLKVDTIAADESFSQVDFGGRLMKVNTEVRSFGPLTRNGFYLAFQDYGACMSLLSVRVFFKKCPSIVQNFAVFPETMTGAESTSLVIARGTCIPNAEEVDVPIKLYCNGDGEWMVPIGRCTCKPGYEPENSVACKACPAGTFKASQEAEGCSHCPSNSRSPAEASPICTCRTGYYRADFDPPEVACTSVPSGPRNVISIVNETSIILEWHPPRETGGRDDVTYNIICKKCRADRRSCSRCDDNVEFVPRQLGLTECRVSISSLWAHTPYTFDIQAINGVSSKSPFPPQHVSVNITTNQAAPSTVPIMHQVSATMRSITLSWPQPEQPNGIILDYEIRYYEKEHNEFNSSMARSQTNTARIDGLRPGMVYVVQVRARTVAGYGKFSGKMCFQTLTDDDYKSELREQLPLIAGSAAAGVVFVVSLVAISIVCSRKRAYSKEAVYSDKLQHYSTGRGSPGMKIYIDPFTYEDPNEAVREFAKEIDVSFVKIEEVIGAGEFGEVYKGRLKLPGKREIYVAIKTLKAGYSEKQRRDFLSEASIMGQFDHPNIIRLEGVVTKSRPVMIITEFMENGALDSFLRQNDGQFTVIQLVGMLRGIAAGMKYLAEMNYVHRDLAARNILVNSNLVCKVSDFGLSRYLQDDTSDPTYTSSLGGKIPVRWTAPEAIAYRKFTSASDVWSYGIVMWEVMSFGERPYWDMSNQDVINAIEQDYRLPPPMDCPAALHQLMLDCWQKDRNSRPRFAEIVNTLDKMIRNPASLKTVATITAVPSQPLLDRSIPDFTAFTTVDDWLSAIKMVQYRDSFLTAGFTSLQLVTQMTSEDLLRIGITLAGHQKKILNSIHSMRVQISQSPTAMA
Experiment: phosphorylation enrichment, bacterial display (enrichment ratio); higher = better substrate or ligand; peptides without Tyr show the background
recorded.metric: phosphorylation enrichment

> print(dat)
                     monomer.sequence  quantitative.readout
 1                        ENAGFYFRISA                 0.587
 2           GVRTIYTIDGS [DCLK2_Y124]                 0.563
 3       SWSTSYSGYRC [NKAPL_Y91_Y96C]                 0.551
 4       GIPIQYPIISE [NOG_Y222_W217G]                  0.55
 5      KDHPDYEYQPR [SOX9_Y172_K173E]                  2.21
 6  LRTAVHHEILI [CREBBP_Y1450_Y1450H]                  1.02
 7          DRPASYKKKSM [PDGFRA_Y768]                 0.343
 8        DVFVSYDFGKS [SORL1_Y139_YF]                 0.452
 9          LLASRYDSPIN [ABLIM1_Y638]                  1.58
10        AFRRGYFDEEM [PLEC_Y2971_YF]                 0.514
11    LSSVSYVGCSL [ADGRD1_Y571_I569V]                 0.633
12       QRIFQYIQSRF [DYRK1B_Y273_YF]                 0.707
13           LSIDRYHAIVY [NPSR1_Y147]                 0.438
14     FKDVTYLKEEK [UBE3A_Y127_T129K]                 0.466

----------
Target: FGFR1 (UniProt P11362)
Sequence (P11362 whole entry, looked up): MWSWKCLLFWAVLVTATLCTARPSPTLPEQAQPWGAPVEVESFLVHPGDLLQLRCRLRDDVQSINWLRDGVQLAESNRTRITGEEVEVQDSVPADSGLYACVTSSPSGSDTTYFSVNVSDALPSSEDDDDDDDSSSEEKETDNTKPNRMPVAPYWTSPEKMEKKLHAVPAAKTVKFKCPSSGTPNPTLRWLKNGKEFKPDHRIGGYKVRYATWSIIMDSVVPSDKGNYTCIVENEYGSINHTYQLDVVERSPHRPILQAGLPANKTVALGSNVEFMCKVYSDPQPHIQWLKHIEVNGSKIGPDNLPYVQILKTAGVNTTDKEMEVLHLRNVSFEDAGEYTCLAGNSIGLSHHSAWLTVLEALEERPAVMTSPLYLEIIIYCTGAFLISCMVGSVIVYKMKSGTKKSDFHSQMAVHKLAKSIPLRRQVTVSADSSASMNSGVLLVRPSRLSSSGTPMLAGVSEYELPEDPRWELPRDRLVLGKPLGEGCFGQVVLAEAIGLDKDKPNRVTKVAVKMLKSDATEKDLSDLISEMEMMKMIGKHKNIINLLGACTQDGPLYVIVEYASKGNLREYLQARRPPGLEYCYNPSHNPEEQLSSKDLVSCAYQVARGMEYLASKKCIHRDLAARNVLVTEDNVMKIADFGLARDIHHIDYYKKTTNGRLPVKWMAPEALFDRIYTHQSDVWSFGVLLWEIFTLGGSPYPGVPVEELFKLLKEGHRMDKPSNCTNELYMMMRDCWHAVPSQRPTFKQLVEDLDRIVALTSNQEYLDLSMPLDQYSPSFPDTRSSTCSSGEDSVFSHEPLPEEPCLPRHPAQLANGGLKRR
Assay: phosphorylation enrichment, bacterial display (enrichment ratio); higher = better substrate or ligand; peptides without Tyr show the background
recorded.metric: phosphorylation enrichment

> print(dat)
                     monomer.sequence  quantitative.readout
 1     QFLMMYVWSAS [ABCD1_Y337_K336M]                 0.426
 2        DGFIDYAEFAK [MCFD2_Y138_YF]                 0.522
 3        DELDKYSEVLK [TPM1_Y60_A63V]                 0.616
 4     QCTSHYPEHVC [SART3_Y541_D540H]                 0.727
 5     NTDETYCIDNK [TUBB3_Y200_E205K]                  0.53
 6         KLLLKYSFHDV [RNF213_Y4141]                 0.439
 7           SPDMLYQYLKQ [RPAP3_Y567]                  3.36
 8     NGRQCYSCRGN [PLAUR_Y217_K220R]                 0.356
 9      FEGAIYRKDIG [GART_Y417_V421I]                 0.478
10         FKIFLYTLNDN [FN1_Y1975_YF]                 0.523
11    KKFPDYIQSAM [SGMS2_Y59_I62S_YF]                 0.479
12  GHLFAYNWISI [BEST1_Y227_D228N_YF]                  1.34
13     QMQNPYSSHSS [MUC13_Y501_R503S]                 0.636
14       PVQAADQKVVA [HBB_Y131_Y131D]                 0.654
15            RLKAKYAAATG [GLI3_Y933]                  0.36
16     NTSKMYIPHTD [EXPH5_Y782_D777N]                 0.415
17    AEPPDYSPVTQ [ADGRG2_Y285_H290Q]                 0.514
18    TVNIRYLLFPS [SERAC1_Y548_S543T]                 0.578
19  MSGDVYSTDFF [NTRK2_Y702_R699G_YF]                  1.42
20     VMTLDYSKTVV [SETD2_Y770_V768L]                 0.419
21          PDMHSYMVRYN [GRIN2D_Y732]                 0.767
22          TVETKYDNISR [SETDB2_Y477]                 0.545
23            EERKTYVNTTL [TEK_Y1102]                 0.464
24      LIHTKCPQLLP [AHCY_Y143_Y143C]                 0.509
25       QRIFQYIQSRF [DYRK1B_Y273_YF]                 0.416
26           RMLREYQELMS [KRT74_Y425]                  0.95
27         VFFFSYLLKNH [PTEN_Y180_YF]                 0.643
28      VMVCAYLLHRG [PTEN_Y138_I135V]                 0.502
29           IDAICYYRMEN [NPHS2_Y194]                  3.09
